# System: SERPINA7 (gene 6906)
# assay.procedure: CCTE_GLTED_hTBG: CCTE's human Thyroxine-binding Globulin (TBG) Inhibition Assay, Great Lakes Toxicology and Ecology Division (GLTED) Lab (AID 2284343);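 note: active chemicals lower fluorescence versus DMSO baseline by displacing probe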
# Procedure: CCTE_GLTED_hTBG is a cell-free, single-readout assay designed to test the chemicals' ability to displace T4 from the human thyroxine-binding globulin (TBG) protein. TBG is incubated in presence of test chemical for 2 hours during which disrupting chemicals displace ANSA from the TBG protein. Results read fluorescence at 380 excitation and 475 emission.CCTE_GLTED_hTBG is the assay component measured from the CCTE_GLTED_hTBG assay. […]
Activity calls are given as the source filed them. Rule for the calls: active = hit-call score of the fitted dose curve at least 0.9, where 1 is the maximum; inconclusive = response in the unintended direction; inactive = score below 0.9.
# valid calls are label 1 (active), label 0 (inactive); nothing else

Answered examples (7):
>>> label_class("CCOc1ccc(C(C)(C)COCc2cccc(Oc3ccccc3)c2)cc1")
"label 0"
>>> label_class("OCC(F)(F)OC(F)(F)C(F)(F)OC(F)(F)C(F)(F)OC(F)(F)CO")
"label 1"
>>> label_class("CCCCc1ccc(O)cc1")
"label 1"
>>> label_class("COC(=O)C(F)(F)C(F)(F)OC(F)(C(F)(F)F)C(F)(F)OC(F)=C(F)F (stereo not drawn)")
"label 1"
>>> label_class("CO/N=C(/C(=O)OC)c1ccccc1COc1ccccc1C")
"label 1"
>>> label_class("O=[N+]([O-])c1ccc(Cl)c(Cl)c1")
"label 0"
>>> label_class("O=P(Oc1ccccc1)(Oc1ccccc1)Oc1ccccc1")
"label 1"

Kindly review the next molecule as well.
Prompt: Which outcome did this test record for the molecule CCOP(=S)(Oc1ccc([N+](=O)[O-])cc1)c1ccccc1 (stereo not drawn) ?
Completion: label 1

---

# assay.procedure: CEETOX_H295R_DOC: CeeTox H295R High-throughput Steroidogenesis Assay for DOC (AID 2283439)
# condition.notes: actives raise or lower the signal
The source made the active and inactive calls. The calls were made as follows: active = hit-call score of the fitted dose curve at least 0.9, where 1 is the maximum; inactive = score below 0.9.
# valid calls are active, inactive; nothing else

>>> label_class("Nc1ccc(Cl)cc1")
"active"
>>> label_class("Nc1cc2c3c(c1)C(c1ccccc1)=N[C@@H](NC(=O)c1cccnc1)C(=O)N3CC2")
"active"
>>> label_class("O=P(Oc1ccccc1)(Oc1ccccc1)Oc1ccccc1")
"inactive"

Prompt: Which outcome did this test record for the compound `ClC(Cl)=C(c1ccc(Cl)cc1)c1ccccc1Cl` ?
Completion: inactive

Prompt: Request: `c1ccc(OP(Oc2ccccc2)Oc2ccccc2)cc1`
Completion: inactive

Prompt: Request: `CO/N=C(/C(=O)OC)c1ccccc1COc1ccccc1C`
Completion: inactive

Prompt: Request: `Nc1ccc([N+](=O)[O-])cc1Cl`
Completion: inactive

Prompt: Request: `CC(=O)c1ccc(-c2ccccc2)cc1`
Completion: active

---

# Read-out: Bcl-2 (BAD) gene, BAD (gene 572)
# assay.procedure: LTEA_HepaRG_BAD: Life Technologies and Expression Analysis (LTEA) Assay for Bcl-2 (BAD) gene using HepaRG (AID 2283469)
# condition.notes: mRNA level, 48 h; actives raise or lower the signal
Activity calls are given as the source filed them. How the source made its calls: active means hit-call score of the fitted dose curve at least 0.9, where 1 is the maximum; inactive means score below 0.9.
quantity.name: outcome

>>> experimental_result("CCCCN(CCCC)N=O")
"inactive"
>>> experimental_result("CCOS(=O)(=O)OCC")
"inactive"
>>> experimental_result("O=P(Oc1ccccc1)(Oc1ccccc1)Oc1ccccc1")
"inactive"
>>> experimental_result("CCC(C)(C)c1ccc(O)cc1")
"inactive"
>>> experimental_result("CCOP(=S)(OCC)SCSCC")
"inactive"

Consider the record given below.
Prompt: Bench note: what outcome did `CCCCc1ccccc1` show?
Completion: inactive

---

# assay.procedure: ATG_CMV_CIS: Attagene CIS-FACTORIAL HepG2 Assay for human CMV (Internal Marker) (AID 2282928);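 note: endpoint acts as a background internal control marker rather than a target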
# condition.notes: HepG2 CMV promoter reporter, transcription factor profiling; actives raise or lower the signal
Active and inactive are the calls of the source. How the source made its calls: active means hit-call score of the fitted dose curve at least 0.9, where 1 is the maximum; inactive means score below 0.9.
# valid calls are active, inactive; nothing else

Prompt: Which outcome did this test record for the molecule C=C(C)C(=O)OCC1CO1 (stereo not given) ?
Completion: inactive

---

# Read-out: Vascular endothelial growth factor receptor 2 (Homo sapiens) (UniProt P35968)
# assay.procedure: BSK_4H_VEGFRII: BioMAP Diversity Plus: 4H Assay for Vascular endothelial growth factor receptor 2 (VEGFR2) Biomarker Activity (AID 2283031)
# condition.notes: primary human endothelial cells (HUVEC); actives raise or lower the signal
Activity calls are given as the source filed them. The calls were made as follows: active = hit-call score of the fitted dose curve at least 0.9, where 1 is the maximum; inactive = score below 0.9.
# valid calls are 1 = active, -1 = inactive; nothing else

>>> label_class("O=P1(N(CCCl)CCCl)NCCCO1 (stereo not drawn)")
-1

Kindly review the next compound as well.
Prompt: Which outcome did this test record for the compound `ClC(Cl)=C(c1ccc(Cl)cc1)c1ccccc1Cl` ?
Completion: 1

---

# target.system: Estrogen receptor beta (Homo sapiens)
# assay.procedure: OT_ER_ERbERb_1440: Odyssey Thera (OT) 24-hour HEK293T Protein-Complementation Assay for Estrogen Receptor-beta/-beta Homodimer (AID 2283380);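 note: fluorescence gain from ER beta LBD homodimer complementation read by laser scanning cytometry; scored as signal increase over DMSO baseline for both agonists and antagonists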
Activity calls are given as the source filed them. How the source made its calls: active means hit-call score of the fitted dose curve at least 0.9, where 1 is the maximum; inconclusive means response in the unintended direction; inactive means score below 0.9.
# valid calls are yes (1) (active), no (0) (inactive); nothing else

>>> label_class("CCOc1ccc(C(C)(C)COCc2cccc(Oc3ccccc3)c2)cc1")
"no (0)"
>>> label_class("CCC1(c2ccccc2)C(=O)N=C(O)NC1=O (configuration not stated)")
"no (0)"
>>> label_class("CC(Cc1ccc(OCC(=O)O)cc1)NCC(O)c1csc(C(F)(F)F)n1 (configuration not stated)")
"no (0)"

Prompt: Which outcome did this test record for the compound O=S1(=O)OCC2C(CO1)C1(Cl)C(Cl)=C(Cl)C2(Cl)C1(Cl)Cl (configuration not stated) ?
Completion: no (0)

Prompt: Request: `CCCCOCCOP(=O)(OCCOCCCC)OCCOCCCC`
Completion: no (0)

Prompt: Request: `ClC(Cl)(Cl)c1ccccc1`
Completion: no (0)

---

# assay.procedure: BSK_4H_Eotaxin3: BioMAP Diversity Plus: 4H Assay for Eotaxin 3 Biomarker Activity (AID 2283000)
# condition.notes: primary human endothelial cells (HUVEC); actives raise or lower the signal
Active and inactive are the calls of the source. How the source made its calls: active means hit-call score of the fitted dose curve at least 0.9, where 1 is the maximum; inactive means score below 0.9.
# valid calls are TRUE for active, FALSE for inactive; nothing else

Answered examples (2):
>>> label_class("O=S1(=O)OCC2C(CO1)C1(Cl)C(Cl)=C(Cl)C2(Cl)C1(Cl)Cl (configuration not stated)")
"TRUE"
>>> label_class("c1ccc2c(c1)Nc1ccccc1S2")
"FALSE"

Prompt: Which outcome did this test record for the compound `CCOc1ccc(C(C)(C)COCc2cccc(Oc3ccccc3)c2)cc1` ?
Completion: FALSE

Prompt: Request: `CCCCCCCc1ccc(O)cc1`
Completion: TRUE

Prompt: Request: `ClC(Cl)c1ccccc1`
Completion: FALSE

Prompt: Request: CCOP(=S)(Oc1ccc([N+](=O)[O-])cc1)c1ccccc1 (configuration not stated)
Completion: FALSE

Prompt: Request: `O=P(Oc1ccccc1)(Oc1ccccc1)Oc1ccccc1`
Completion: TRUE

---

# target.system: Estrogen receptor (Homo sapiens) + Estrogen receptor beta (Homo sapiens) (UniProt P03372+Q92731)
# Sequence (P03372 whole entry, looked up, the tested form may be a part): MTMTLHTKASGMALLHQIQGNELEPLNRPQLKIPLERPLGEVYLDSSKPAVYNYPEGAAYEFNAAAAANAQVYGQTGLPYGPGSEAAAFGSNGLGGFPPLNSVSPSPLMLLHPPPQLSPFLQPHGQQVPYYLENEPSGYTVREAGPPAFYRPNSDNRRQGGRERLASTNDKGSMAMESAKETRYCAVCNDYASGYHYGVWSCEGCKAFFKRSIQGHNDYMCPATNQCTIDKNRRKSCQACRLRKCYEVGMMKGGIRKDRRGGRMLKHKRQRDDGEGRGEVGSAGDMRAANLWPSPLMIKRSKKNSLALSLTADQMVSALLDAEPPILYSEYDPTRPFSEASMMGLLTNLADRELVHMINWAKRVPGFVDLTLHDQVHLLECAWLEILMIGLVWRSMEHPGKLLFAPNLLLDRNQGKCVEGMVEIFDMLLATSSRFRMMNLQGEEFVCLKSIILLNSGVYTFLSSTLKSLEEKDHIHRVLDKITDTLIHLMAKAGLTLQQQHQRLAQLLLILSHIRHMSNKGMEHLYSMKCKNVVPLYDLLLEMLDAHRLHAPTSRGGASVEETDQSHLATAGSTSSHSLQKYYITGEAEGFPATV
# Sequence (Q92731 whole entry, looked up, the tested form may be a part): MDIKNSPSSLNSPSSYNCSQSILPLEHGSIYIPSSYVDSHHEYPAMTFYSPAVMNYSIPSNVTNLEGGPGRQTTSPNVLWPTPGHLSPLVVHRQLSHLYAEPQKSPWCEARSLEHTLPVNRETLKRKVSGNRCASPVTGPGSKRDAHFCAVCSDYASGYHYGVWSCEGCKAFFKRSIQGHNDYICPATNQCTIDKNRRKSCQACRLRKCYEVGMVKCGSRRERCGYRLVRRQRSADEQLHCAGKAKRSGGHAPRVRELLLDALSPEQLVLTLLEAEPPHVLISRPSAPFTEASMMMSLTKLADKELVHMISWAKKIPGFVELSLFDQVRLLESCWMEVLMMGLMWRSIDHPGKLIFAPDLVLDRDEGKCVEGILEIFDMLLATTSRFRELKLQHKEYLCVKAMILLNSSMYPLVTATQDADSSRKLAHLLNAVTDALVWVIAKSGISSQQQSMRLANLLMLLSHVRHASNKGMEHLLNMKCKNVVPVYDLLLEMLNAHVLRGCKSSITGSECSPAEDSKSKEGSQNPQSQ
# assay.procedure: OT_ER_ERaERb_1440: Odyssey Thera (OT) 24-hour HEK293T Protein-Complementation Assay for Estrogen Receptor-alpha/-beta Homodimer (AID 2283356);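 note: heteromer of ER alpha and ER beta binding domains; hits raise reporter fluorescence and both agonists and antagonists give an increase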
Results filed as inconclusive are left out. Activity calls are given as the source filed them. The calls were made as follows: active = hit-call score of the fitted dose curve at least 0.9, where 1 is the maximum; inconclusive = response in the unintended direction; inactive = score below 0.9.
# valid calls are active, inactive; nothing else

Answered examples (5):
>>> label_class("FC(F)(F)c1ccc(Cl)cc1")
"inactive"
>>> label_class("ClC1=C(Cl)C2(Cl)C3C(Cl)C(Cl)CC3C1(Cl)C2(Cl)Cl (centres undefined)")
"inactive"
>>> label_class("CCOP(=S)(OCC)SCSCC")
"inactive"
>>> label_class("O=S(=O)(c1ccc(O)cc1)c1ccc(O)cc1")
"active"
>>> label_class("c1ccc2c(c1)Nc1ccccc1S2")
"inactive"

Prompt: Which outcome did this test record for the compound `Cc1ccc([N+](=O)[O-])cc1C` ?
Completion: inactive

Prompt: Request: `O=[N+]([O-])c1ccccc1`
Completion: inactive

Prompt: Request: `COC(N)=O`
Completion: inactive

Prompt: Request: CCCCC(CC)COC(=O)c1c(Br)c(Br)c(Br)c(Br)c1C(=O)OCC(CC)CCCC (centres undefined)
Completion: inactive

Prompt: Request: `Cc1ccc(O)cc1C`
Completion: inactive

Prompt: Request: `c1cc2c3c(cccc3c1)CC2`
Completion: inactive

Prompt: Request: `CCCCN(CCCC)N=O`
Completion: inactive

Prompt: Request: CC(Cc1ccc(OCC(=O)O)cc1)NCC(O)c1csc(C(F)(F)F)n1 (centres undefined)
Completion: inactive

Prompt: Request: `CCOS(=O)(=O)OCC`
Completion: inactive

---

# Read-out: Tumor necrosis factor receptor 1 (TNFRSF1A), TNFRSF1A (gene 7132)
# assay.procedure: LTEA_HepaRG_TNFRSF1A: Life Technologies and Expression Analysis (LTEA) Assay for Tumor necrosis factor receptor 1 (TNFRSF1A) using HepaRG (AID 2283535)
# condition.notes: mRNA level, 48 h; actives raise or lower the signal
Calls of active or inactive are those of the source. How the source made its calls: active means hit-call score of the fitted dose curve at least 0.9, where 1 is the maximum; inactive means score below 0.9.
# valid calls are 1 (yes) for active, 0 (no) for inactive; nothing else

Answered examples (10):
>>> label_class("ClC(Cl)c1ccccc1")
"0 (no)"
>>> label_class("CCCN(CCC)c1c([N+](=O)[O-])cc(C(C)C)cc1[N+](=O)[O-]")
"1 (yes)"
>>> label_class("Nc1cc2c3c(c1)C(c1ccccc1)=N[C@@H](NC(=O)c1cccnc1)C(=O)N3CC2")
"0 (no)"
>>> label_class("O=C(O)C(Cl)Cl")
"0 (no)"
>>> label_class("Nc1ccc2ccccc2c1")
"0 (no)"
>>> label_class("CCNc1nc(Cl)nc(NC(C)(C)C)n1")
"0 (no)"
>>> label_class("ClC1=C(Cl)C2(Cl)C3C(Cl)C(Cl)CC3C1(Cl)C2(Cl)Cl (centres undefined)")
"0 (no)"
>>> label_class("Cc1ccc(O)cc1C")
"0 (no)"
>>> label_class("CCC(C)(C)c1ccc(O)cc1")
"0 (no)"
>>> label_class("[N-]=[N+]=[N-]")
"1 (yes)"

Prompt: Which outcome did this test record for the compound OCC1CO1 (centres undefined) ?
Completion: 0 (no)

Prompt: Request: `CCOC(=O)c1ccccc1C(=O)OCC`
Completion: 0 (no)

Prompt: Request: CCOP(=S)(Oc1ccc([N+](=O)[O-])cc1)c1ccccc1 (centres undefined)
Completion: 0 (no)

Prompt: Request: `CN(C)C(=O)Cl`
Completion: 0 (no)
